Source: patent US9708336B2

# measurementTarget: UniProtKB C7C422
# experimentalDetails: biochemical
# Assay type: biochemical
# measurementContext: fluorescence assay with CCF2-FA substrate; read-out: NDM-1 IC50
Property: pIC50; scope: individual compounds
// field semantics: pIC50 = negative decimal log of concentration (mol/L)

Worked cases, pIC50 given:
[[record]]
compound = "CN(c1ncc(-c2cccc(S(N)(=O)=O)c2-c2nn[nH]n2)cn1)S(C)(=O)=O"
measuredvalue = 8.46

[[record]]
compound = "NS(=O)(=O)c1cccc(-c2cncs2)c1-c1nn[nH]n1"
measuredvalue = 7.46


Look up pIC50 for this compound: "CC(C)(C)C(=O)NCC1CCN(c2ccc(C(F)(F)F)c(S(N)(=O)=O)c2-c2nnn[nH]2)CC1"
8.25

Look up pIC50 for this compound: "NS(=O)(=O)c1cccc(-c2cccc3c2NCCC3)c1-c1nnn[nH]1"
8.13

Look up pIC50 for this compound: NS(=O)(=O)c1cccc(C#CCC2CNCCO2)c1-c1nn[nH]n1 (centres unmarked)
6.72

====

# measurementTarget: NDM-1 (Klebsiella pneumoniae)
# experimentalDetails: biochemical
# Assay type: biochemical
# measurementContext: NDM-1 enzyme, CCF2-FA fluorescence assay; read-out: NDM-1 IC50
Property: pIC50; scope: individual compounds
// field semantics: pIC50 = negative decimal log of concentration (mol/L)

Worked cases, pIC50 given:
[[record]]
compound = "Nc1ccnc2cc(-c3cccc(S(N)(=O)=O)c3-c3nnn[nH]3)ccc12"
measurementtarget = "NDM-1 (Klebsiella pneumoniae)"
measurementtype = "pIC50"
measuredvalue = 7.59

[[record]]
compound = "NS(=O)(=O)c1c(CC[C@H]2CC[C@@H](N)CC2)ccc(-c2ccc(C3CCNCC3)cc2)c1-c1nn[nH]n1"
measurementtarget = "NDM-1 (Klebsiella pneumoniae)"
measurementtype = "pIC50"
measuredvalue = 8.42


Look up pIC50 for this compound: "C[N+]1(C)CC(c2ccc(-c3ccc(C(F)(F)F)c(S(N)(=O)=O)c3-c3nn[nH]n3)cc2)C1"
7.92

Look up pIC50 for this compound: NS(=O)(=O)c1c(CC2(F)CCNC2)ccc(-c2ccc(C3CCNCC3)cc2)c1-c1nn[nH]n1 (centres unmarked)
7.99

Look up pIC50 for this compound: "NS(=O)(=O)c1cccc(-c2ccc(CNCc3ccncn3)cc2)c1-c1nnn[nH]1"
8.28

Look up pIC50 for this compound: "NS(=O)(=O)c1cccc(-c2ccc(CNCCc3ncc[nH]3)cc2)c1-c1nnn[nH]1"
7.89

Look up pIC50 for this compound: "NS(=O)(=O)c1cccc(-c2ccc(CN[C@H]3COC[C@@H]3O)cc2)c1-c1nnn[nH]1"
8.27

Look up pIC50 for this compound: NC1Cc2ccc(-c3ccc(C(F)(F)F)c(S(N)(=O)=O)c3-c3nn[nH]n3)cc2C1 (centres unmarked)
7.93

====

# measurementTarget: NDM-1 (Klebsiella pneumoniae, UniProt C7C422)
# Sequence (C7C422 whole entry, looked up, species assumed): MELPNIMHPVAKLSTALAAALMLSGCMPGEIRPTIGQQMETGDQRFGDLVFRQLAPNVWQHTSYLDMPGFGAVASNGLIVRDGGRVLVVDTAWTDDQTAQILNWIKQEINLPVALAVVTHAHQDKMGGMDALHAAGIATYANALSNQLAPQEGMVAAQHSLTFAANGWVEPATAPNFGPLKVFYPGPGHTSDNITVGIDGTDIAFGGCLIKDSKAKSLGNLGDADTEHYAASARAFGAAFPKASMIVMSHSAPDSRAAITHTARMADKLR
# experimentalDetails: biochemical
# Format: biochemical
measurementType: pIC50
// field semantics: pIC50 = negative decimal log of concentration (mol/L)

Worked cases, pIC50 given:
[[record]]
compound = "NS(=O)(=O)c1c(C(F)(F)F)ccc([C@H]2CC[C@@H](C3=NCCN3)CC2)c1-c1nnn[nH]1 [Example 505]"
measurementtype = "pIC50"
measuredvalue = 8.02

[[record]]
compound = "CC(CO)Oc1ccc(-c2cccc(S(N)(=O)=O)c2-c2nn[nH]n2)cc1 (stereo not drawn) [Example 6]"
measurementtype = "pIC50"
measuredvalue = 8.71


Look up pIC50 for this compound: NS(=O)(=O)c1c(CCC2CCNCC2)ccc(-c2ccc(C3CCNCC3)cc2)c1-c1nn[nH]n1 [Example 460]
8.40

====

# measurementTarget: IMP-1 (Serratia marcescens, UniProt P52699)
# Sequence (P52699 whole entry, looked up): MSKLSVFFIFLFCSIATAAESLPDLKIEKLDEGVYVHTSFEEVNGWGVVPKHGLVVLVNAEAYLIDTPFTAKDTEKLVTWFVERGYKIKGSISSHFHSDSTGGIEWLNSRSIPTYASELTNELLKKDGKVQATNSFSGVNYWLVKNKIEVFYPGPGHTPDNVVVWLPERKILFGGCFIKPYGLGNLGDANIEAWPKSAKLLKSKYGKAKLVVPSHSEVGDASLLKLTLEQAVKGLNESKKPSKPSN
# experimentalDetails: biochemical
# Format: biochemical
# measurementContext: IMP-1 enzyme, CCF2-FA substrate; read-out: IMP-1 IC50
Mark Criterion met only when IC50 stays strictly below 30 nM. Values equal to the cut-off are Criterion not met.

Confirm or reject: IC50 of "NS(=O)(=O)c1cccc(-c2ccc(C3CCN(CC4CNC4)CC3)cc2)c1-c1nnn[nH]1" lies strictly below 30 nM
Criterion met

Confirm or reject: IC50 of NS(=O)(=O)c1cccc(-c2ccc(C3CCN(CC4CCNC4)CC3)cc2)c1-c1nnn[nH]1 (stereo not shown) lies strictly below 30 nM
Criterion met

Confirm or reject: IC50 of "NCCc1ccc(-c2ccc(C(F)(F)F)c(S(N)(=O)=O)c2-c2nnn[nH]2)cc1" lies strictly below 30 nM
Criterion met

====

# measurementTarget: NDM-1 (Klebsiella pneumoniae)
# experimentalDetails: biochemical
# Format: biochemical
# measurementContext: NDM-1 enzyme, CCF2-FA substrate; read-out: NDM-1 IC50
Property: pIC50; scope: individual compounds
// field semantics: pIC50 = negative decimal log of concentration (mol/L)

Worked cases, pIC50 given:
[[record]]
compound = "NS(=O)(=O)c1c(CC[C@H]2CC[C@@H](N)CC2)ccc(-c2ccc(C3CNC3)cc2)c1-c1nnn[nH]1"
measurementtype = "pIC50"
measuredvalue = 8.59

[[record]]
compound = "Nc1ccc(-c2ccc(CCC3CCNCC3)c(S(N)(=O)=O)c2-c2nnn[nH]2)cn1"
measurementtype = "pIC50"
measuredvalue = 8.08

[[record]]
compound = "Nc1nc2c(-c3ccc(CC4CNC4)c(S(N)(=O)=O)c3-c3nn[nH]n3)cccc2s1"
measurementtype = "pIC50"
measuredvalue = 8.56

[[record]]
compound = "CN(C)CCNc1nc2c(-c3cccc(S(N)(=O)=O)c3-c3nn[nH]n3)cccc2s1"
measurementtype = "pIC50"
measuredvalue = 9.07

[[record]]
compound = "NC[C@H]1CC[C@@H](Cc2ccc(-c3ccc(C4CCNC4)cc3)c(-c3nnn[nH]3)c2S(N)(=O)=O)CC1 (stereo partly shown)"
measurementtype = "pIC50"
measuredvalue = 9.10

[[record]]
compound = "NS(=O)(=O)c1cccc(-c2cnc3ncccn23)c1-c1nnn[nH]1"
measurementtype = "pIC50"
measuredvalue = 7.85


Look up pIC50 for this compound: NS(=O)(=O)c1c(C(F)(F)F)ccc(C2CCn3cncc3C2)c1-c1nnn[nH]1 (stereo not shown)
8.35

Look up pIC50 for this compound: "N=C(N)N1CCC(Cc2ccc(-c3ccc(C4CNC4)cc3)c(-c3nn[nH]n3)c2S(N)(=O)=O)CC1"
8.48

Look up pIC50 for this compound: NS(=O)(=O)c1c(C(F)(F)F)ccc([C@H]2CC[C@H](NC3CC[C@H]4NCC[C@@H]34)CC2)c1-c1nnn[nH]1 (stereo partly shown)
8.20

Look up pIC50 for this compound: NC1CCC(N[C@H]2CC[C@H](c3ccc(C(F)(F)F)c(S(N)(=O)=O)c3-c3nnn[nH]3)CC2)C1 (stereo partly shown) [Example 691]
7.98

Look up pIC50 for this compound: "NS(=O)(=O)c1c(C(F)(F)F)ccc(-c2ccc3c(c2)CNCC3)c1-c1nnn[nH]1"
8.52

Look up pIC50 for this compound: "NCCCc1ccc(-c2ccc(C(F)(F)F)c(S(N)(=O)=O)c2-c2nnn[nH]2)cc1"
8.52

Look up pIC50 for this compound: NCC1COc2ccc(-c3ccc(C(F)(F)F)c(S(N)(=O)=O)c3-c3nnn[nH]3)cc21 (stereo not shown)
7.48

Look up pIC50 for this compound: "Nc1nc2nccc(-c3ccc(C(F)(F)F)c(S(N)(=O)=O)c3-c3nnn[nH]3)c2[nH]1"
9.48

Look up pIC50 for this compound: NS(=O)(=O)c1c(CC2CCNCC2)ccc(-c2ccc(C3CCNC3)cc2)c1-c1nn[nH]n1 (stereo not shown)
8.20

Look up pIC50 for this compound: "NC[C@H]1CC[C@H](Cc2ccc(-c3ccc(N)nc3)c(-c3nnn[nH]3)c2S(N)(=O)=O)CC1"
8.79

Look up pIC50 for this compound: "NS(=O)(=O)c1c(CCO)ccc(-c2cccc3ncccc23)c1-c1nn[nH]n1"
8.94

Look up pIC50 for this compound: "NC[C@H]1CC[C@@H](Cc2ccc(-c3ccc(C4CNC4)cc3)c(-c3nnn[nH]3)c2S(N)(=O)=O)CC1"
8.40

Look up pIC50 for this compound: "NS(=O)(=O)c1c(C(F)(F)F)ccc(-c2cccc3c2CCNC3)c1-c1nn[nH]n1"
8.23

Look up pIC50 for this compound: NC1=NCC(c2ccc(-c3cccc(S(N)(=O)=O)c3-c3nnn[nH]3)cc2)CN1 (stereo not shown)
8.32

Look up pIC50 for this compound: "Nc1nc2cc(C(F)(F)F)cc(-c3ccc(C(F)(F)F)c(S(N)(=O)=O)c3-c3nnn[nH]3)c2[nH]1"
9.52

Look up pIC50 for this compound: NC1(c2ccc(-c3ccc(C(F)(F)F)c(S(N)(=O)=O)c3-c3nnn[nH]3)cc2)CCOC1 (stereo not shown)
8.55

====

# measurementTarget: IMP-1 (Serratia marcescens, UniProt P52699)
# experimentalDetails: biochemical
# Assay type: biochemical
# measurementContext: fluorescence assay with CCF2-FA substrate; read-out: IMP-1 IC50
measurementType: pIC50
// field semantics: pIC50 = negative decimal log of concentration (mol/L)

Worked cases, pIC50 given:
[[record]]
compound = "NS(=O)(=O)c1c(C(F)(F)F)ccc(N2C[C@@H](O)[C@H](O)C2)c1-c1nnn[nH]1 [Example 756]"
measurementtype = "pIC50"
measuredvalue = 7.05

[[record]]
compound = "NS(=O)(=O)c1nccc(N2CCC(Cn3ccnc3)CC2)c1-c1nnn[nH]1 [Example 233]"
measurementtype = "pIC50"
measuredvalue = 6.71

[[record]]
compound = "NS(=O)(=O)c1cccc(C2CC2)c1-c1nnn[nH]1 [Example 157]"
measurementtype = "pIC50"
measuredvalue = 6.25

[[record]]
compound = "CN(C)S(=O)(=O)c1ccc(-c2cccc(S(N)(=O)=O)c2-c2nn[nH]n2)cc1 [Example 59]"
measurementtype = "pIC50"
measuredvalue = 7.44

[[record]]
compound = "NS(=O)(=O)c1cccc(-c2cnn(CCN3CCOCC3)c2)c1-c1nnn[nH]1 [Example 126]"
measurementtype = "pIC50"
measuredvalue = 6.06

[[record]]
compound = "Cc1nnc2ccc(-c3cccc(S(N)(=O)=O)c3-c3nnn[nH]3)cn12 [Example 113]"
measurementtype = "pIC50"
measuredvalue = 4.83

[[record]]
compound = "NS(=O)(=O)c1nccc(-c2ccc(N3CCOCC3)nc2)c1-c1nn[nH]n1 [Example 208]"
measurementtype = "pIC50"
measuredvalue = 6.23

[[record]]
compound = "NS(=O)(=O)c1nccc(-c2ccc(C3CCNCC3)cc2)c1-c1nnn[nH]1 [Example 197]"
measurementtype = "pIC50"
measuredvalue = 6.24


Test system IMP-1 (Serratia marcescens, UniProt P52699); read-out pIC50; what value for Nc1[nH]nc2ccc(-c3cccc(S(N)(=O)=O)c3-c3nnn[nH]3)cc12 [Example 132] ?
6.12

Test system IMP-1 (Serratia marcescens, UniProt P52699); read-out pIC50; what value for Cc1ccccc1Cc1cccc(S(N)(=O)=O)c1-c1nnn[nH]1 [Example 155] ?
7.03
